assay: Oral pharmacokinetic study; type: in vivo, Sprague Dawley rats; details: Sprague Dawley, rat, plasma, po; BBR; 100 mg/kg orally
PROPERTY NAME: AUC(0-inf) (ng·h/mL)
# unit: ng·h/mL | format: bare number

Quick note, AUC(0-inf) for COc1ccc2cc3[n+](cc2c1OC)CCc1cc2c(cc1-3)OCO2.[Cl-] [BBR free drug] landed at 819

###

test: Oral pharmacokinetic study; format: in vivo, Sprague Dawley rats; conditions: Sprague Dawley, rat, po; BBR; 100 mg/kg orally, plasma
PROPERTY NAME: Cmax
For clarity, give the value followed by its unit.

Recorded result, COc1ccc2cc3[n+](cc2c1OC)CCc1cc2c(cc1-3)OCO2.[Cl-] [BBR free drug] , Cmax: 147 ng/mL
